Catalogue of inhibition at 10 µM readings, one per entry.
System: TNF-α secretion in PBMC
test.summary: Inhibition of LPS-stimulated TNF-α secretion in PBMC (ELISA)
Format: cell-based
condition.details: Homo sapiens; TNF-α secretion in PBMC, 10 μM; read-out: Inhibition rate %
Response body: numeric value in %, unit text excluded.

1) COc1cc2c(cc1OC1CCCC1)[C@H](CCc1c[nH]c3cc(C)ccc13)N(C=O)CC2 [(S)-C3]
79.2

Prompt: I would be grateful if you could share the reported inhibition at 10 µM for COc1cc2c(cc1OC)C(CCc1c[nH]c3ccccc13)N(CC(F)(F)F)CC2 (centres unmarked) .
Completion: -23.2

Prompt: Field entry: CCOc1cc2c(cc1OC)CCN(C(=O)COC)[C@H]2CCc1c[nH]c2ccccc12 [(S)-B12]
Completion: 80.7

Prompt: Field entry: COCC(=O)N1CCc2cc(OC)c(OC)cc2[C@@H]1CCc1c[nH]c2ccccc12 [(S)-B11]
Completion: 90.7
